Record form. Attribute: pest or weed control at 250 g/ha. Fill in for each entry.
System: Lolium perenne (LOLPE)
RUN DESCRIPTION: Glasshouse assay for herbicidal activity (pre- and post-emergence), percentage phytotoxicity
Assay type: in vivo
REPORTED CONDITIONS: Lolium perenne, pre-emergence, 480 h, Rate 250 g/ha; pre-emergence; visual assessment 20 DAA; 100%=total damage, 0%=no damage; read-out: Pre-emergence herbicidal activity (percentage phytotoxicity) LOLPE PRE
Lab book: enter the figure in %, no units written.

Lookup result for Cc1cc(-c2ccc(F)cn2)cc(C)c1C1C(=O)CC(CC(=O)NCc2cccc(F)c2)C1=O (stereo not drawn) [Compound B383] ; measured pest or weed control at 250 g/ha: 100

Lookup result for CCN(C)C(=O)CC1CC(=O)C(c2c(C)cc(-c3ncc(Cl)cn3)cc2C)C1=O (stereo not drawn) [Compound B347] ; measured pest or weed control at 250 g/ha: 100

Lookup result for COCC(C)NC(=O)CC1CC(=O)C(c2c(C)cc(-c3ccc(F)cn3)cc2C)C1=O (stereo not drawn) [Compound B391] ; measured pest or weed control at 250 g/ha: 100

Cited source for all entries: patent US10206394B2
